Listed here are compounds together with their documented T/C.
System: P388 leukemia ip, CD2F1 mice, survival T/C
ASSAY DETAILS: NCI In Vivo Anticancer Drug Screen. Data for tumor model P388 Leukemia (intraperitoneal) in CD2F1 (CDF1) mice
STATED CONDITIONS: endpoint: median survival time; dose: 100.0 mg/kg/injection; schedule: Q04DX003 (ip); vehicle: saline with Tween-80; higher = longer survival
Toxic doses and inconclusive results are not listed.
MEASURE NAME: T/C

compound=CS(=O)(=O)c1nnnn1-c1ccccc1 target_desc="P388 leukemia ip, CD2F1 mice, survival T/C" measure_name=T/C test_value="105 % of control"
compound=COC(=O)/C=C/N(Cc1ccccc1)Cc1ccccc1 target_desc="P388 leukemia ip, CD2F1 mice, survival T/C" measure_name=T/C test_value="95 % of control"
compound="CCC(c1ccc(Cl)cc1)C(C#N)c1ccccc1 (configuration not stated)" target_desc="P388 leukemia ip, CD2F1 mice, survival T/C" measure_name=T/C test_value="100 % of control"
compound=C[n+]1cccc(C2=CCCC2)c1 target_desc="P388 leukemia ip, CD2F1 mice, survival T/C" measure_name=T/C test_value="97 % of control"
compound=O=C1C=C(O/C=C/C(C(F)(F)F)C(F)(F)F)C(=O)c2ccccc21 target_desc="P388 leukemia ip, CD2F1 mice, survival T/C" measure_name=T/C test_value="95 % of control"
compound=COc1ccc(CNNc2ccc(NC(C)=O)cc2N)cc1 target_desc="P388 leukemia ip, CD2F1 mice, survival T/C" measure_name=T/C test_value="105 % of control"
compound=COc1ccc(N=Nc2c(O)n(-c3ccc(Br)cc3)c(=S)n(-c3ccc(OC)cc3)c2=O)cc1 target_desc="P388 leukemia ip, CD2F1 mice, survival T/C" measure_name=T/C test_value="96 % of control"
compound="Cc1ccc(S(=O)CF)cc1 (configuration not stated)" target_desc="P388 leukemia ip, CD2F1 mice, survival T/C" measure_name=T/C test_value="107 % of control"
compound=O=C(NCc1ccccc1)c1ccc(Cl)c(Cl)c1 target_desc="P388 leukemia ip, CD2F1 mice, survival T/C" measure_name=T/C test_value="90 % of control"
compound="CC(=O)Nc1nc2c(=O)[nH]c(N)nc2n1C1OC(COC(C)=O)C(OC(C)=O)C1OC(C)=O (configuration not stated)" target_desc="P388 leukemia ip, CD2F1 mice, survival T/C" measure_name=T/C test_value="100 % of control"
compound="CCC1OCCN1C(C)C (configuration not stated)" target_desc="P388 leukemia ip, CD2F1 mice, survival T/C" measure_name=T/C test_value="104 % of control"
compound=Nc1ccc(S(=O)(=O)c2ccc(NCC(=O)O)cc2)cc1 target_desc="P388 leukemia ip, CD2F1 mice, survival T/C" measure_name=T/C test_value="100 % of control"
